Provenance of the data: ChEMBL document CHEMBL3576796

test: Cytotoxicity against MDCK cells assessed as decrease in cell viability by MTT assay; type: cell-based, Canis lupus familiaris; settings: dog
// CC50 lookup, one value per entry

[
  {
    "compound": "COc1ccc(C(=O)Nc2nc3nc(-c4ccccc4)cc(C)n3n2)cc1",
    "CC50": "> 250 µM"
  },
  {
    "compound": "COc1ccc(C(=O)Nc2nc3nc(C)cc(-c4ccccc4)n3n2)cc1",
    "CC50": "> 250 µM"
  },
  {
    "compound": "CCCOc1ccc(C(=O)Nc2nc3nc(C)cc(-c4ccccc4)n3n2)cc1",
    "CC50": "> 72 µM"
  },
  {
    "compound": "CC1=CC(c2ccccc2)n2nc(NC(=O)CCc3ccccc3)nc2N1 (centres undefined)",
    "CC50": "> 250 µM"
  },
  {
    "compound": "CC1=CC(c2ccccc2)n2nc(NC(=O)c3ccc(-c4ccccc4)cc3)nc2N1 (centres undefined)",
    "CC50": "> 193 µM"
  },
  {
    "compound": "CCCOc1ccc(C(=O)Nc2nc3nc(-c4ccccc4)cc(C)n3n2)cc1",
    "CC50": "> 247 µM"
  },
  {
    "compound": "Cc1cc(-c2ccccc2)n2nc(NC(=O)c3ccccc3)nc2n1",
    "CC50": "> 250 µM"
  },
  {
    "compound": "CC1=CC(c2ccccc2)n2nc(NC(=O)c3ccccc3)nc2N1 (centres undefined)",
    "CC50": "> 250 µM"
  },
  {
    "compound": "CC1=CC(c2ccccc2)n2nc(NC(=O)c3ccc([N+](=O)[O-])cc3)nc2N1 (centres undefined)",
    "CC50": "> 250 µM"
  },
  {
    "compound": "CC1=CC(c2ccccc2)n2nc(NC(=O)c3ccc(F)cc3)nc2N1 (centres undefined)",
    "CC50": "> 250 µM"
  },
  {
    "compound": "Cc1cc(-c2ccccc2)nc2nc(C(=O)Nc3sc4c(c3C(N)=O)CCCCC4)nn12",
    "CC50": "> 250 µM"
  },
  {
    "compound": "Cc1cc(-c2ccccc2)nc2nc(NC(=O)c3ccccc3)nn12",
    "CC50": "> 250 µM"
  },
  {
    "compound": "Cc1cc(-c2ccccc2)nc2nc(C(=O)Nc3ccccc3)nn12",
    "CC50": "> 250 µM"
  },
  {
    "compound": "CCOc1ccc(C(=O)Nc2nc3n(n2)C(c2ccccc2)C=C(C)N3)cc1 (centres undefined)",
    "CC50": "> 250 µM"
  },
  {
    "compound": "CC1=CC(c2ccccc2)n2nc(NC(=O)c3ccccc3F)nc2N1 (centres undefined)",
    "CC50": "> 250 µM"
  },
  {
    "compound": "CCCOc1ccc(C(=O)Nc2nc3n(n2)C(c2ccccc2)C=C(C)N3)cc1 (centres undefined)",
    "CC50": "> 230 µM"
  },
  {
    "compound": "COc1ccc(C(=O)Nc2nc3n(n2)C(c2ccccc2)C=C(C)N3)cc1 (centres undefined)",
    "CC50": "> 240 µM"
  },
  {
    "compound": "COc1ccccc1C(=O)Nc1nc2n(n1)C(c1ccccc1)C=C(C)N2 (centres undefined)",
    "CC50": "> 250 µM"
  },
  {
    "compound": "Cc1cc(-c2ccccc2)n2nc(C(=O)Nc3ccccc3)nc2n1",
    "CC50": "> 250 µM"
  },
  {
    "compound": "CCCCOc1ccc(C(=O)Nc2nc3n(n2)C(c2ccccc2)C=C(C)N3)cc1 (centres undefined)",
    "CC50": "> 196 µM"
  },
  {
    "compound": "COc1cccc(C(=O)Nc2nc3n(n2)C(c2ccccc2)C=C(C)N3)c1 (centres undefined)",
    "CC50": "> 250 µM"
  },
  {
    "compound": "NC(=O)c1ncn([C@@H]2O[C@H](CO)[C@@H](O)[C@H]2O)n1 [RIBAVIRIN]",
    "CC50": "> 250 µM"
  },
  {
    "compound": "CC1=CC(c2ccccc2)n2nc(NC(=O)c3ccc(Oc4ccccc4)cc3)nc2N1 (centres undefined)",
    "CC50": "> 180 µM"
  },
  {
    "compound": "CC1=CC(c2ccccc2)n2nc(NC(=O)c3ccc(Cl)cc3)nc2N1 (centres undefined)",
    "CC50": "> 250 µM"
  },
  {
    "compound": "CC1=CC(c2ccccc2)n2nc(NC(=O)c3ccc(OC(C)C)cc3)nc2N1 (centres undefined)",
    "CC50": "> 250 µM"
  },
  {
    "compound": "CC1=CC(c2ccccc2)n2nc(NC(=O)c3cccc(F)c3)nc2N1 (centres undefined)",
    "CC50": "> 250 µM"
  },
  {
    "compound": "CC1=CC(c2ccccc2)n2nc(NC(=O)c3ccc4ccccc4c3)nc2N1 (centres undefined)",
    "CC50": "> 115 µM"
  },
  {
    "compound": "Cc1cc(-c2ccccc2)n2nc(C(=O)Nc3sc4c(c3C(N)=O)CCCCC4)nc2n1",
    "CC50": "> 250 µM"
  },
  {
    "compound": "CCCCc1ccc(C(=O)Nc2nc3n(n2)C(c2ccccc2)C=C(C)N3)cc1 (centres undefined)",
    "CC50": "> 250 µM"
  }
]
